Numbers sourced from patent US20040121965A1.

Tested on: Colo205
Assay: Cell survival assay (SRB), Colo205
Assay type: cell-based
Settings: Homo sapiens, COLO 205, 72 h
measurement.label: IC50

Entry `CN[C@H](C(=O)N[C@H](C(=O)N(C)[C@H](/C=C(\C)C(=O)O)C(C)C)C(C)(C)C)C(C)(C)c1ccccc1` ; IC50 = 1.5 nM

---

Test system: MX-1W
Assay: Cell survival assay (SRB), MX-1W
Assay type: cell-based
Conditions: Homo sapiens, MX1W, 72 h, MX-1W; 3 days, SRB; vehicle control (DMSO), no MDR-1 inhibitor
measurement.label: IC50 (nM)
Field format: number, assumed nM, no unit text.

Per the records, this compound ( CN[C@H](C(=O)N[C@H](C(=O)N(C)[C@H](/C=C(\C)C(=O)O)C(C)C)C(C)(C)C)C(C)(C)c1ccccc1 [Example 129] ) has IC50 equal to 1.4

---

Test system: KB-3-1
Assay: Cell survival assay (SRB), KB-3-1
Type: cell-based, human
Conditions: Homo sapiens, KB 3-1, KB-3-1 cells (paclitaxel-sensitive parent); read-out: In vitro IC50 (nM) KB-3-1
This listing pairs compounds with measured IC50.
Lab book: enter the figure in nM, no units written.

Solved entries (count: 5):
Entry `CN[C@@H](C(=O)N[C@H](C(=O)N(C)[C@H](/C=C(\C)C(=O)O)C(C)C)C(C)(C)C)C(C)(C)c1cc(C)cc(C)c1` , IC50 reported as 7.2

IC50 measured on `CN[C@@H](C(=O)N[C@H](C(=O)N(C)[C@H](/C=C(\C)C(=O)O)C(C)C)C(C)(C)C)C(C)(C)c1cccs1` = 10.2

The compound `CN[C@H](C(=O)N[C@H](C(=O)N(C)[C@H](/C=C(\C)C(=O)O)C(C)C)C(C)(C)O)C(C)(C)c1ccccc1` showed IC50 equal to 58

Value of measured IC50 for the entry `CN[C@H](C(=O)N[C@H](C(=O)N(C)[C@H](/C=C(\C)C(=O)O)C(C)C)C(C)(C)SCc1ccc(OC)cc1)C(C)(C)c1ccc(OC)cc1` : 15.8

Data point: `CN[C@H](C(=O)N[C@H](C(=O)N(C)[C@H](/C=C(\C)C(=O)O)C(C)C)C(C)(C)C)C(C)(C)c1cccc(Cl)c1` ; IC50 = 1.14

Now take the following compound into account.
So for `CN[C@H](C(=O)N[C@H](C(=O)N(C)[C@H](/C=C(\C)C(=O)O)C(C)C)C(C)(C)C)[C@H](C)c1ccccc1` , the logged IC50 turned out to be 438

---

Tested on: KB-8-5 (MDR1+)
Conditions: human
measurement.label: pIC50
By convention, pIC50 is the negative base-10 log of a molar concentration.

Please fill in: pIC50 reported for `CN[C@H](C(=O)N[C@H](C(=O)N(C)[C@H](/C=C(\C)C(=O)O)C(C)C)C(C)(C)C)C(C)(C)c1ccccc1` = 7.41

---

System: KB-8-5 (MDR1+)
Test: Cell survival assay (SRB), KB-8-5 (MDR1+)
Conditions: Homo sapiens, MDR1, 72 h
measurement.label: pIC50
Quick note: pIC50 values are minus log10 of concentrations in mol/L.

// field: pIC50; key: `CN[C@H](C(=O)N[C@H](C(=O)N(C)[C@H](/C=C(\C)C(=O)O)C(C)C)C(C)(C)C)C(C)(C)c1ccccc1` ; value = 8.72

---

# collection of IC50 values tested on KB-V1 (MDR1++)
State just the number; it will be interpreted in nM.

The value of IC50 measured for the compound `CCN(C(=O)[C@@H](NC(=O)[C@@H](NC)C(C)(C)c1ccccc1)C(C)C)[C@H](/C=C(\C)C(=O)O)C(C)C.O=C(O)C(F)(F)F` turned out to be 2550

Turning to the following compound.
The value of IC50 measured for the compound `CN[C@@H](C(=O)N[C@H](C(=O)N(C)[C@H](/C=C(\C)C(=O)O)C(C)C)C(C)(C)C)C(C)(C)c1ccc(OC(C)C)cc1` turned out to be 2340

---

Tested on: KB-3-1
Experiment: Cell survival assay (SRB), KB-3-1
Type: cell-based, human
Conditions: Homo sapiens; KB-3-1 cells (paclitaxel-sensitive parent); read-out: In vitro IC50 (nM) KB-3-1
measurement.label: IC50 (nM)
Answer in nM, number only, no unit symbol.

// IC50 (KB-3-1) for CC(C)C[C@H](N)C(=O)N[C@H](C(=O)N[C@H](CC(C)C(=O)O)C(C)C)C(C)(C)C (stereo partly shown) = 692

---

Tested on: KB-V1 (MDR1++)
Assay: Cell survival assay (SRB), KB-V1 (MDR1++)
measurement.label: Ratio KBV1/KB
Enter a number only.

Some compounds with known Ratio KBV1/KB results, for comparison:
Looking up CCOC(=O)/C(C)=C/[C@H](C(C)C)N(C)C(=O)[C@@H](NC(=O)[C@@H](NC)C(C)(C)c1ccc(C)c(C)c1)C(C)(C)C [Example 13a] , I see its Ratio KBV1/KB listed as 191.0

The compound CN[C@H](C(=O)N[C@H](C(=O)N[C@H](/C=C(\C)C(=O)O)C(C)C)C(C)C)C(C)(C)c1ccccc1.O=C(O)C(F)(F)F [Example 102] showed Ratio KBV1/KB equal to 8.1

The compound CN[C@H](C(=O)N[C@H](C(=O)N(C)[C@H](/C=C(\C)C(=O)O)C(C)C)C(C)(C)SCc1ccc(OC)cc1)C(C)(C)c1ccc(OC)cc1 [Example 83] showed Ratio KBV1/KB equal to 132.2

Kindly note the recorded Ratio KBV1/KB for CN[C@H](C(=O)N[C@H](C(=O)N(C)[C@H](/C=C(\C)C(=O)O)C(C)C)C(C)(C)C)C(C)(C)c1ccc(C(C)(C)C)cc1 [Example 30] , which is 35.9

Reported Ratio KBV1/KB of CN[C@H](C(=O)N[C@H](C(=O)N(C)[C@H](/C=C(\C)C(=O)O)C(C)C)C(C)(C)C)C(C)(C)c1ccccc1C [Example 35] : 61.6

Others:
# Ratio KBV1/KB (compound: CN[C@H](C(=O)N[C@H](C(=O)N(C)[C@H](/C=C(\C)C(=O)O)C(C)C)C(C)(C)C)C1(c2ccccc2)CCCC1 [Example 71] ) is 21.2

Sample CNC(=O)/C(C)=C/[C@H](C(C)C)N(C)C(=O)[C@@H](NC(=O)[C@@H](NC)C(C)(C)c1ccccc1)C(C)(C)C [Example 108] ; Ratio KBV1/KB observed: 23.3

So, CN[C@H](C(=O)N[C@H](C(=O)N(C)[C@H](/C=C(\C)C(=O)O)CC(C)C)C(C)(C)C)C(C)(C)c1ccccc1 [Example 92] ? Its Ratio KBV1/KB was 23.9

---

Tested on: KB-3-1
Assay: Cell survival assay (SRB), KB-3-1
Assay type: cell-based, human
Conditions: Homo sapiens, KB 3-1, KB-3-1 cells (paclitaxel-sensitive parent); read-out: In vitro IC50 (nM) KB-3-1
Source text: Cells lines with previously known mechanisms of resistance. […] Res. 8: 207-218,1996); KB-3-1 (parental derived from an epidermoid carcinoma), KB-8.5, KB-V1 (Akiyama S-I, Fojo A, Hanover J A, Pastan I, Gottesman M M. Isolation and genetic characterization of human KB cell lines resistant to multiple drugs. […] 2.2. […] Absorbance is read on a Victor V multi-label plate reader (Perkin Elmer, Gaithersburg, Md.).
IC50 overview
Express the reported value numerically, then name its unit.

Recorded results for 5 compounds are shown here.
# IC50 of `CN[C@H](C(=O)N[C@H](C(=O)N(C)[C@H](/C=C(\C)C(=O)O)C(C)C)C(C)(C)C)C(C)(C)c1ccc(C(=O)O)cc1` = 680 nM

GET /value?item= `CN[C@H](C(=O)N[C@H](C(=O)N(C)[C@H](/C=C(\C)C(=O)O)C(C)C)C(C)(C)C)C(C)(C)c1cc2ccccc2s1` &field=IC50 returns 2.55 nM

IC50 reading for `CN[C@H](C(=O)N[C@H](C(=O)N(C)[C@H](/C=C(\C)C(=O)O)C(C)C)C(C)(C)C)C(C)(C)SCc1ccc(OC)cc1` : 5.2 nM

Entry `CN[C@H](C(=O)N[C@H](C(=O)N(C)[C@H](/C=C(\C)C(=O)O)C(C)C)C(C)(C)C)C(C)(C)C1CCCCC1` , IC50 reported as 3.7 nM

IC50 measured on `CN[C@H](C(=O)N[C@H](C(=O)N(C)[C@H](/C=C(\C)C(=O)O)C(C)C)C(C)(C)C)C(C)(C)Cc1ccccc1` = 2.7 nM

Okay, next one:
compound `C/C(=C\[C@H](C(C)C)N(C)C(=O)[C@@H](NC(=O)[C@@H](NCCO)C(C)(C)c1ccccc1)C(C)(C)C)C(=O)O` , IC50 observed: 183 nM

---

Tested on: KB-8-5 (MDR1+)
Experiment: Cell survival assay (SRB), KB-8-5 (MDR1+)
Details: Homo sapiens, MDR1, read-out: KB-8-5 (MDR1+) IC50, nM (N)
Form field: IC50 (one value per entry).
Report the figure along with its unit, number first.

Reference set (2 entries):
Form field IC50 for item COc1cc2c(c(OC)c1OC)-c1ccc(OC)c(=O)cc1[C@@H](NC(C)=O)CC2 [colchicine, reference compound] on KB-8-5 (MDR1+): 62.7 nM

# IC50 measured on KB-8-5 (MDR1+) for item CCC1=C[C@@H]2CN(C1)Cc1c([nH]c3ccccc13)[C@@](C(=O)OC)(c1cc3c(cc1OC)N(C)[C@H]1[C@@](O)(C(=O)OC)[C@H](OC(C)=O)[C@]4(CC)C=CCN5CC[C@]31[C@@H]54)C2 [vinorelbine, reference compound] = 132 nM

Now examine the next entry.
Result for CC(=O)O[C@@]12CO[C@@H]1C[C@H](O)[C@@]1(C)C(=O)[C@H](O)C3=C(C)[C@@H](OC(=O)[C@H](O)[C@@H](NC(=O)OC(C)(C)C)c4ccccc4)C[C@@](O)([C@@H](OC(=O)c4ccccc4)[C@H]21)C3(C)C [docetaxel, reference compound] , tested on KB-8-5 (MDR1+), IC50: 9.7 nM
